MEASURED_TARGET: endothelin receptor
EXPERIMENT_DESCRIPTION: Inhibition of endothelin-1 binding to endothelin receptor (125I-endothelin binding test, rabbit ventricular microsomal fraction)
MEASUREMENT_CONTEXT: 125I-endothelin-1 6×10^-11 M, 37° C., 90 minutes
PROPERTY_LABEL: IC50 (µM)

Some solved entries appear below for comparison.
COMPOUND	IC50, µM
CCCS(=O)(=O)N=c1nc2sc(C)c(-c3ccc(C4CCCCC4)cc3)n2s1 [Example 111]	6.1
Cc1sc2nc(=NS(=O)(=O)Cc3ccccc3)sn2c1-c1ccc(C2CCCCC2)cc1 [Example 83]	6
CCS(=O)(=O)N=c1nc2sc(C)c(-c3ccc(C4CCCCC4)cc3)n2s1 [Example 82]	7.5
CCCc1sc2nc(=NS(=O)(=O)c3ccc(C)cc3)sn2c1-c1ccc2c(c1)CCCC2 [Example 23]	2.5
CCc1sc2nc(=NS(=O)(=O)c3ccc(C)cc3)sn2c1-c1cn(C)c2ccccc12 [Example 106]	4.2

P: O=S(=O)(N=c1nc2cc3c(cn2s1)CCCC3)c1ccccc1 [Example 14]
Q: CCc1sc2nc(=NS(=O)(=O)c3ccc(C)cc3)sn2c1-c1ccc2c(c1)CCCC2 [Example 20]
// task: argmin of IC50 over [ P , Q ] Mark your answer with the label of the selected entry.
Q

I: Cc1ccccc1S(=O)(=O)N=c1nc2sc(C)c(-c3ccc(C4CCCCC4)cc3)n2s1 [Example 73]
II: CCc1sc2nc(=NS(=O)(=O)c3ccc(F)cc3)sn2c1-c1ccc(C2CCCCC2)cc1 [Example 114]
Larger number for IC50: I , or II ? Mark your answer with the label of the selected entry.
I
(I: 7.3 µM, II: 3.8 µM)

I: CCOC(=O)Cc1sc2nc(=NS(=O)(=O)c3ccc(C)cc3)sn2c1-c1ccc2c(c1)CCCC2 [Example 26]
II: CCc1sc2nc(=NS(=O)(=O)c3ccc(C)cc3)sn2c1-c1ccc(C2CCCCC2)cc1 [Example 99]
III: Cc1ccccc1S(=O)(=O)N=c1nc2cc3c(cn2s1)CCCC3 [Example 13]
Please rank these compounds by IC50 in descending order. Give your ranking as a list of the labels in the requested order.
III, I, II
(III: 5.9 µM, I: 4 µM, II: 2.1 µM)

A: CCCCOc1ccc(-c2c(CC)sc3nc(=NS(=O)(=O)c4ccc(C)cc4)sn23)cc1 [Example 104]
B: CCCCCCCCS(=O)(=O)N=c1nc2sc(C)c(-c3ccc(C4CCCCC4)cc3)n2s1 [Example 112]
// task: argmin of IC50 over [ A , B ] Mark your answer with the label of the selected entry.
A
(A: 2.7 µM, B: 5.2 µM)

I: Cc1ccc(S(=O)(=O)N=c2nc3sc(C(C)C)c(-c4ccc5c(c4)CCCC5)n3s2)cc1 [Example 24]
II: Cc1ccc(S(=O)(=O)N=c2nc3cc4c(cn3s2)CCCC4)cc1 [Example 12]
Larger number for IC50: I , or II ? Mark your answer with the label of the selected entry.
II
